All values here come from PubChem BioAssay AID2060882.

System: 898857-211-R-J1-PDC complex spheroids, growth % test/control;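 further: spheroids exposed to compound for seven days before readout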
Experiment: Anticancer human tumor 898857-211-R-J1-PDC patient-derived melanoma cell line growth inhibition [RAS]; active means viability on the fitted dose curve at most 10% of control; inactive means the rest
Details: second compound 0.00949 µM; first compound 0.0316 µM
Select the correct class. Options are true (active), false (inactive) and nothing else.

COMPOUND	CLASS_ASSIGNMENT
Nc1ccn(C2OC(CO)C(O)C2(F)F)c(=O)n1 (configuration not stated) + CCn1c(-c2cccnc2C(C)OC)c2c3cc(ccc31)N1CCOC(CC(NC(=O)C(C(C)C)N(C)C(=O)C3(F)CCN(C(=O)C#CC(C)(C)N(C)C)CC3)C(=O)N3CCCC(N3)C(=O)OCC(C)(C)C2)C1	true

For O=C(c1ccc(F)c(F)c1Nc1ccc(I)cc1F)N1CC(O)([C@@H]2CCCCN2)C1 + CCn1c(-c2cc(N3CCN(C)CC3)cnc2C(C)OC)c2c3cc(ccc31)-c1csc(n1)CC(NC(=O)C1CC1C)C(=O)N1CCCC(N1)C(=O)OCC(C)(C)C2 , which call appears in the assay record?
false
